Origin of values: patent US20110294874A1

- Test system: C57BL/6 mice subjected to liver IR
- METHOD SUMMARY: Murine model of liver ischemia reperfusion (hepatic IR): plasma ALT and creatinine
- Format: in vivo, mouse
- CONDITION CONTEXT: C57BL/6 mice, 60 min liver ischemia, 24 h reperfusion

{"COMPOUND": "CCCCCCCCc1cccc(NC(=O)[C@H](N)COP(=O)(O)O)c1 [VPC]", "TEST TARGET": "C57BL/6 mice subjected to liver IR", "Serum creatinine (mean) [mg/dL]": 1.61}
{"COMPOUND": "CCCCCCCCCCCCC/C=C/[C@@H](O)[C@@H](N)CO [Sphingosine, sphingosine]", "TEST TARGET": "C57BL/6 mice subjected to liver IR", "Serum creatinine (mean) [mg/dL]": 0.76}
{"COMPOUND": "CCCCCCCCCCCCCCC[C@@H](O)[C@@H](N)CO [Sphinganine, sphinganine]", "TEST TARGET": "C57BL/6 mice subjected to liver IR", "Serum creatinine (mean) [mg/dL]": 0.58}
{"COMPOUND": "FC(F)(F)c1cccc(-c2noc(-c3cc(-c4ccccc4)c(C(F)(F)F)s3)n2)c1 [SEW2871]", "TEST TARGET": "C57BL/6 mice subjected to liver IR", "Serum creatinine (mean) [mg/dL]": 0.63}
{"COMPOUND": "CCCCCCCCc1ccc(CCC(N)(CO)CO)cc1 [FTY720]", "TEST TARGET": "C57BL/6 mice subjected to liver IR", "Serum creatinine (mean) [mg/dL]": 0.65}
